What follows is literature data on pIC50 for Epidermal growth factor receptor (Homo sapiens).
The read-out pIC50 is expressed as -log10 of concentration in moles per litre.

Ask: Please state recorded pIC50 (tested on Epidermal growth factor receptor (Homo sapiens)) of CC(C)Oc1nn(CCO)c2c1/C=C/c1n[nH]c3ccc(cc13)-c1cnn(C)c1O[C@@H](C#N)CN(C)C2
Reply: 6.09

Ask: API: value(readout=pIC50, system=Epidermal growth factor receptor (Homo sapiens)) for record COc1cc(Nc2ncc(Br)c(Nc3ccc(-c4cnn(C)n4)c(F)c3P(C)(C)=O)n2)c(C)cc1N1CC(C)OC(C)C1 (centres unmarked)
Reply: 6.90

Ask: Observed pIC50 on Epidermal growth factor receptor (Homo sapiens) for Fc1ccc(Nc2ncnc3nc(Nc4ccc(OCCN5CCOCC5)cc4)sc23)cc1Cl , please.
Reply: 7.23

Ask: Notebook entry, Epidermal growth factor receptor (Homo sapiens) assay: pIC50 of CCc1cc(Nc2ncc(Cl)c(Nc3ccc(-c4cnn5c4CC(C)(C)C5)cc3P(C)(C)=O)n2)c(OC)cc1N1CCC(N2CCN(C)CC2)CC1 = ?
Reply: 7.23

Ask: Lab note: need pIC50 for C[C@H]1CN(C)Cc2c(c(OC3CCN(S(C)(=O)=O)CC3)nn2C)/C=C/c2n[nH]c3ccc(cc23)-c2cnn(C)c2O1 on Epidermal growth factor receptor (Homo sapiens), anyone have it?
Reply: 6.49

Ask: Look up pIC50 with Epidermal growth factor receptor (Homo sapiens) for this compound: COc1cc(N2CCC(N3CCN(C)CC3)CC2)c(C)cc1Nc1ncc(Cl)c(Nc2cccc3c2N(S(C)(=O)=O)CC32CC2)n1
Reply: 9.30

Ask: Request: pIC50, test system Epidermal growth factor receptor (Homo sapiens), entry COc1cc(Nc2ncc(Br)c(Nc3ccc(-c4nccs4)cc3P(C)(C)=O)n2)c(C)cc1N1CCC(N2CCN(C)CC2)CC1
Reply: 7.83
